These measurements were taken from patent EP1108710A1.

subject.of.test: UniProt:P10608
Sequence (P10608 whole entry): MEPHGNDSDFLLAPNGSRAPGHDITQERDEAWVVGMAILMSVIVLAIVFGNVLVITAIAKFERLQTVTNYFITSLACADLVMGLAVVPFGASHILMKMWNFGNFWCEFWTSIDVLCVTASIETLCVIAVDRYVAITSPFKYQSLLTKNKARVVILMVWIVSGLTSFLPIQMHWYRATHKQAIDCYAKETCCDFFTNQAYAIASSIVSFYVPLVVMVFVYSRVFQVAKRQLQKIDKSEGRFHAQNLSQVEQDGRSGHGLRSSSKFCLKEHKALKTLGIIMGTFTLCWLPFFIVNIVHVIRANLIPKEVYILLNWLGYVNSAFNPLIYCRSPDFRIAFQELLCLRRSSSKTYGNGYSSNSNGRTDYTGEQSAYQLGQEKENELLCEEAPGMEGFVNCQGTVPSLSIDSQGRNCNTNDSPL
readout.kind: Ki (nM)
Give the number; nM is assumed, so skip it.

Dear colleague, I am looking for the recorded Ki of the following compound: COC(=O)C1=C(C)NC(C)=C(C(=O)OC)C1c1ccc(OCC(O)CNC(C)(C)C)c(OC)c1 (stereo not shown) 631

----------
Tested on: normotensive rats
assay.info: Heart rate and blood pressure in living (anaesthetized) rat, intravenous injection
Type: in vivo, Wistar rats
condition.context: lmg/kg; via femoral vein, rats
readout.kind: Lowering of Blood Pressure (mm Hg)
The response must be a number in mm Hg with no trailing unit.

Recorded results for 5 compounds are shown here.
CCOC(=O)C1=C(C)NC(C)=C(C(=O)OCC)C1c1cc([N+](=O)[O-])ccc1OCC(O)CNC(C)(C)C (stereo not drawn) [compound 8] :: 80
CCOC(=O)C1=C(C)NC(C)=C(C(=O)OCC)C1c1cc(Cl)ccc1OCC(O)CNCCOc1ccccc1OC (stereo not drawn) [compound 6] :: 80
CCOC(=O)C1=C(C)NC(C)=C(C(=O)OCC)C1c1ccc(OCC(O)CNCCOc2ccccc2OC)c(OC)c1 (stereo not drawn) [compound 3] :: 78
COC(=O)C1=C(C)NC(C)=C(C(=O)OC)C1c1ccc(OCC(O)CNCCOc2ccccc2OC)c(OC)c1 (stereo not drawn) [compound 2] :: 75
CCOC(=O)C1=C(C)NC(C)=C(C(=O)OCC)C1c1ccc(OCC(O)CNCCOc2ccccc2OC)c(Cl)c1 (stereo not drawn) [compound 7] :: 82

Quick one: Lowering of Blood Pressure for CCOC(=O)C1=C(C)NC(C)=C(C(=O)OCC)C1c1cc(Cl)ccc1OCC(O)CNC(C)(C)C (stereo not drawn) [compound 4] ? 76

What would you report for COC(=O)C1=C(C)NC(C)=C(C(=O)OC)C1c1ccc(OCC(O)CNC(C)(C)C)c(OC)c1 (stereo not drawn) [compound 1] ? 70

Same for CCCCNCC(O)COc1ccc(Cl)cc1C1C(C(=O)OCC)=C(C)NC(C)=C1C(=O)OCC (stereo not drawn) [compound 5] 74

Param item: CCOC(=O)C1=C(C)NC(C)=C(C(=O)OCC)C1c1cc([N+](=O)[O-])ccc1OCC(O)CNCCOc1ccccc1OC (stereo not drawn) [compound 9] 85

----------
subject.of.test: atrial β 1-receptor (Rattus norvegicus)
Construct: The heart and lung of rat were removed and placed in cold Tris buffer; from tissue; host or cells: rat atrial membranes
Sequence (P18090 whole entry): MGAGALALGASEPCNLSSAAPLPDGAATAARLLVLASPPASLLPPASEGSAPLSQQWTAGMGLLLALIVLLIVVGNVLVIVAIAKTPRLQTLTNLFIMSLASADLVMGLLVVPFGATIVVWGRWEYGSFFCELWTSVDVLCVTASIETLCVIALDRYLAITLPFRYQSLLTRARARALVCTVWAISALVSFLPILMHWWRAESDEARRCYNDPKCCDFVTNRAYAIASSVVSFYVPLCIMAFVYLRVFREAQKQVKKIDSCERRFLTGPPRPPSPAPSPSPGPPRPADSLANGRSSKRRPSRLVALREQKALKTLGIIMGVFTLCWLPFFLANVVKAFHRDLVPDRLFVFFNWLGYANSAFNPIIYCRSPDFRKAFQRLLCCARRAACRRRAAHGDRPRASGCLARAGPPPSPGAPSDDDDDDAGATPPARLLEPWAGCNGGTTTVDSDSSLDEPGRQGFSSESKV
assay.info: [3H]CGP-12177 receptor binding on atrial membranes
Set-up: species or system Wistar rat
readout.kind: Ki (nM)
Quick reminder: number only, in nM, skip the unit.

Entry under review: COC(=O)C1=C(C)NC(C)=C(C(=O)OC)C1c1ccc(OCC(O)CNC(C)(C)C)c(OC)c1 (stereo not shown) . Reported Ki? 245
